The measurements presented in this section are drawn from ChEMBL document CHEMBL4400519.

The entries below come with measured inhibition values attached.
- EXPERIMENTAL_TARGET: Cannabinoid receptor (Mus musculus) (UniProt P47746+P47936)
- Sequence (P47746 whole entry, looked up): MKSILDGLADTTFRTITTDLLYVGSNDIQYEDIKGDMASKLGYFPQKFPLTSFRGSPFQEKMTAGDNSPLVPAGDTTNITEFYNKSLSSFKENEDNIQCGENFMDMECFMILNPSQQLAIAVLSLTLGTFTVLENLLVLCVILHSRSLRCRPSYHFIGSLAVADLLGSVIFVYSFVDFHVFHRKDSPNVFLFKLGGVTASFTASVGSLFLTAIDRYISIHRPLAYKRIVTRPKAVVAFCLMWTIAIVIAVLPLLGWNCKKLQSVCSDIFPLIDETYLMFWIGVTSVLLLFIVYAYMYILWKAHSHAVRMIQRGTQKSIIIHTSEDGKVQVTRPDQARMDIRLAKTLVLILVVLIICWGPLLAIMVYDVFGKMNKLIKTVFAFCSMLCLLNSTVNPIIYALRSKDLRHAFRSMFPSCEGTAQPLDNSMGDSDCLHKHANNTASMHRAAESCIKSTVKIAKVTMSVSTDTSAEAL
- Sequence (P47936 whole entry, looked up): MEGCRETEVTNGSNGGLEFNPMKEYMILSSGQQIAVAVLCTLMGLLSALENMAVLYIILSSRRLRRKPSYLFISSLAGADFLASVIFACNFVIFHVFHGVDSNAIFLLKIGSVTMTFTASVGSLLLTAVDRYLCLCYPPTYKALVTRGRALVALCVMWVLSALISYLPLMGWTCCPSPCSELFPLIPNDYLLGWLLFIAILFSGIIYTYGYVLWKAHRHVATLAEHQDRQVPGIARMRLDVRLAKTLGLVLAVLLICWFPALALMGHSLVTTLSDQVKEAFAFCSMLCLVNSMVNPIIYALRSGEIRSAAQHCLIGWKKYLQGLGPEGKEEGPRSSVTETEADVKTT
- PROTOCOL_SUMMARY: Agonist activity at cannabinoid receptor in ICR mouse vas deferens assessed as inhibition of electrically induced contractions at 8.1 x 10^-6 M after 10 mins in presence of CB2 antagonist AM630 relative to control
- Type: protein assay
MEASUREMENT_TYPE: inhibition (%)

[[record]]
molecule_smiles = "O=C(c1cccc(F)c1F)n1nc(OCCN2CCCC2)c2ccccc21"
measurement_type = "inhibition"
observed = 21.2

[[record]]
molecule_smiles = "Cc1cc(C)c(C(=O)n2nc(OCCN3CCCCC3)c3ccccc32)c(C)c1"
measurement_type = "inhibition"
observed = -4.7

[[record]]
molecule_smiles = "O=C(c1cccc(Cl)c1Cl)n1nc(OCCN2CCCC2)c2ccccc21"
measurement_type = "inhibition"
observed = 30.4

[[record]]
molecule_smiles = "O=C(c1ccccc1Cl)n1nc(OCCN2CCCC2)c2ccccc21"
measurement_type = "inhibition"
observed = 15.8

[[record]]
molecule_smiles = "O=C(c1ccc2ccccc2c1)n1nc(OCCCN2CCCCC2)c2ccccc21"
measurement_type = "inhibition"
observed = 20.9

[[record]]
molecule_smiles = "O=C(c1cccc2ccccc12)n1nc(OCCCN2CCCCC2)c2ccccc21"
measurement_type = "inhibition"
observed = 41

[[record]]
molecule_smiles = "O=C(c1c(F)ccc(F)c1F)n1nc(OCCN2CCCCC2)c2ccccc21"
measurement_type = "inhibition"
observed = 32.3

[[record]]
molecule_smiles = "O=C(c1ccccc1Cl)n1nc(OCCCN2CCCCC2)c2ccccc21"
measurement_type = "inhibition"
observed = 34.3

[[record]]
molecule_smiles = "O=C(c1cccc(Cl)c1Cl)n1nc(OCCN2CCCCC2)c2ccccc21"
measurement_type = "inhibition"
observed = 60.2

[[record]]
molecule_smiles = "COc1cc(C(=O)n2nc(OCCN3CCCC3)c3ccccc32)cc(OC)c1OC"
measurement_type = "inhibition"
observed = 40

[[record]]
molecule_smiles = "O=C(c1cccc(Cl)c1Cl)n1nc(OCCCN2CCCCC2)c2ccccc21"
measurement_type = "inhibition"
observed = 62.7

[[record]]
molecule_smiles = "COc1ccc(CC(=O)n2nc(OCCN3CCCC3)c3ccccc32)cc1"
measurement_type = "inhibition"
observed = 47.9

[[record]]
molecule_smiles = "O=C(c1cccc(Cl)c1F)n1nc(OCCCN2CCCCC2)c2ccccc21"
measurement_type = "inhibition"
observed = 12.9

[[record]]
molecule_smiles = "O=C(c1ccccc1OCc1ccccc1)n1nc(OCCCN2CCCCC2)c2ccccc21"
measurement_type = "inhibition"
observed = 29.7

[[record]]
molecule_smiles = "Cc1c(C(=O)c2cccc3ccccc23)c2cccc3c2n1[C@H](CN1CCOCC1)CO3"
measurement_type = "inhibition"
observed = 54.8

[[record]]
molecule_smiles = "O=C(Cc1ccc(Cl)cc1)n1nc(OCCCN2CCCCC2)c2ccccc21"
measurement_type = "inhibition"
observed = 86.6

[[record]]
molecule_smiles = "O=C(c1ccccc1OCc1ccccc1)n1nc(OCCN2CCCC2)c2ccccc21"
measurement_type = "inhibition"
observed = 47.2

[[record]]
molecule_smiles = "O=C(c1cccc2ccccc12)n1nc(OCCN2CCCCC2)c2ccccc21"
measurement_type = "inhibition"
observed = 73.6

[[record]]
molecule_smiles = "O=C(c1cccc2ccccc12)n1nc(OCCCN2CCCC2)c2ccccc21"
measurement_type = "inhibition"
observed = 68.7

[[record]]
molecule_smiles = "COc1ccc(CC(=O)n2nc(OCCCN3CCCCC3)c3ccccc32)cc1"
measurement_type = "inhibition"
observed = 68.5

